target: human TLR9 (Homo sapiens, UniProt Q9NR96); assay: TLR9 inhibition reporter assay (HEK-Blue cells, SEAP reporter, ODN2006 stimulation); conditions: HEK-Blue cells overexpressing human TLR9, SEAP reporter, ODN2006 5 nM
Sequence (Q9NR96 26-1032): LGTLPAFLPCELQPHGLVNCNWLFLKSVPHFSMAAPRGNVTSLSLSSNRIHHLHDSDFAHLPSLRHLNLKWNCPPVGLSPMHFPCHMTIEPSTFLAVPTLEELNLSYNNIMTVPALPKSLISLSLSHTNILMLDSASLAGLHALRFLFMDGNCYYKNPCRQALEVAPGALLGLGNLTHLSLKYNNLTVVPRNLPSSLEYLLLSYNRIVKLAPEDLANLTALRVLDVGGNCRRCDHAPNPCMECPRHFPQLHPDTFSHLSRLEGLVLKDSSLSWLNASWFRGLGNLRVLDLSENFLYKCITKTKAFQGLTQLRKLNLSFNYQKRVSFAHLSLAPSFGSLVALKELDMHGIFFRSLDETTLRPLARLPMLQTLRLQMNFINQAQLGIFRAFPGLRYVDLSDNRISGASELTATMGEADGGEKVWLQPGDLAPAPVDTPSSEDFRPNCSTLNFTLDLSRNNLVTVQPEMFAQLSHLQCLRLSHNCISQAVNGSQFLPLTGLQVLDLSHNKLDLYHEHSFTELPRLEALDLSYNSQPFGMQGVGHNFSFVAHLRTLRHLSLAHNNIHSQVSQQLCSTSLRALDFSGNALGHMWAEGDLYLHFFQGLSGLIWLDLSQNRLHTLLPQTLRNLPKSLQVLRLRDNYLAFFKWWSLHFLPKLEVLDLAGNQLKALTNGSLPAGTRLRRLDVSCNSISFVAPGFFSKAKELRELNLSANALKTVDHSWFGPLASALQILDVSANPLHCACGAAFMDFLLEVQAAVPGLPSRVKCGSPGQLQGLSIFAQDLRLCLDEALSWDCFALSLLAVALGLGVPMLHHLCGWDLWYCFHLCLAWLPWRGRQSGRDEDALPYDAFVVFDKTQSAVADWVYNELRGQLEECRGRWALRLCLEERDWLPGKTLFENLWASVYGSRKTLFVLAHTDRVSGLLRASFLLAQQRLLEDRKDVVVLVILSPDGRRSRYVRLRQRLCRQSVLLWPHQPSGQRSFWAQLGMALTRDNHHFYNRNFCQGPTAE
endpoint-label: IC50 (µM)

Example compounds with recorded IC50:
1) Cc1cc(-c2[nH]nc(C3CCC(NCC4(C)COC4)CC3)c2C(C)C)cn2ncnc12 (single isomer, unassigned) [Example 281] | 42.6
2) COc1cc(-c2[nH]nc(C(=O)NC3CCN(C4CCN(C(C)C)CC4)CC3)c2CC(F)(F)F)cn2ncnc12 [Example 199] | 2.95

(1) Cc1cc(-c2[nH]nc(C(=O)NC3CCN(Cc4ncn(C)n4)CC3)c2C(C)C)cn2ncnc12 [Example 158]
(2) CCCN1CCC(c2cnc(-c3n[nH]c(-c4cc(OC)c5ncnn5c4)c3C(C)C)cn2)CC1 [Example 383]
(3) CCC(CC)CN1CCC(NC(=O)c2n[nH]c(-c3cc(C)c4ncnn4c3)c2C(C)C)CC1 [Example 79]
Query block: Arrange the 3 compounds by rising IC50, starting with the smallest. Order the labels as requested and give them as your answer.
Result block: 3, 1, 2
(3: 4.12 µM, 1: 14.3 µM, 2: 47 µM)

(P) COc1cc(-c2[nH]nc(-c3ccc(C4CCN(CC(C)(C)O)CC4)cc3)c2C(C)C)cn2ncnc12 [Example 319]
(Q) Cc1cc(-c2[nH]nc(C(=O)NC3CCC(NCC(C)(C)C)CC3)c2C(C)C)cn2ncnc12 (stereo not shown) [Example 126]
Query block: Which shows the larger IC50 value: P or Q ? Answer format: the label of the selected item.
Result block: P

(A) Cc1cc(-c2[nH]nc(C(=O)N[C@H]3CCCN(C)C3)c2C(C)C)cn2ncnc12 [Example 162]
(B) Cc1cc(-c2[nH]nc(-c3cccnc3)c2C(C)C)cn2ncnc12 [Example 224]
Query block: Lower IC50: A or B ? Refer to your chosen item by its label in the answer.
Result block: B
(B: 9.03 µM, A: 20.3 µM)

(I) CCC(CC)N[C@H]1CC[C@@H](NC(=O)c2n[nH]c(-c3cc(C)c4ncnn4c3)c2C(C)C)CC1 [Example 100]
(II) COCC(C)N[C@H]1CC[C@@H](NC(=O)c2n[nH]c(-c3cc(C)c4ncnn4c3)c2C(C)C)CC1 (stereo partly shown) [Example 147]
Query block: Quick check, higher IC50 between I and II ? API: response body contains the label of the selected item.
Result block: II
